Numbers sourced from patent US20250092065A1.

Recorded measurements of pIC50, one per entry
Tested on: MYB
Assay: HiBiT protein abundance assay, MYB (K562 HiBiT knock-in)
Type: cell-based, human
Details: HiBiT knock-in K562 cells, 24 hours, top dose 10 μM
Method: Compounds described herein were used to screen for effects on quantitative protein abundance using a HiBit assay system (Promega). Quantitative protein abundance was determined by measuring the protein levels of HiBit-tagged protein targets expressed in cell culture via luminescence using the Nano-Glo HiBiT Lytic Detection System, which uses a split complementation assay format to reconstitute NanoBiT enzyme to generate a luminescent signal. […]
pIC50: −log10 of the molar value.

Check out these entries, answers already filled in.
>>> df
                                   molecule  parameter     obs_value
0  Cn1cc2cc(-c3ccc4nc(N5CCC(NC6(C)CC6)C5)ccc4n3)c(O)cc2n1 (stereo not shown) [Compound 219]      pIC50        > 7.00
1  Cc1nc2cc(O)c(-c3ccc4nc(N5CCC(NC(C)(C)C)CC5)ccc4n3)cc2o1 [Compound 412]      pIC50  6.00 to 7.00
2  Cc1nc2cc(O)c(-c3ccc4nc(N5CC[C@H](NC6(C)CC6)C5)ccc4n3)cc2o1 [Compound 257]      pIC50        > 7.00

input: # query: pIC50 | item Cn1cc2cc(-c3ccc4nc(N5CCNCC5)ccc4n3)c(O)cc2n1 [Compound 136] | system: MYB
output: 6.00 to 7.00

* * *

system: MYB; assay: HiBiT protein abundance assay, MYB (K562 HiBiT knock-in); format: cell-based, human; details: HiBiT knock-in K562 cells, 24 hours, top dose 10 μM
pIC50: −log10 of the molar value.
parameter: pIC50

Check out these entries, answers already filled in.
>>> print(df.to_string())
                                   compound     obs_value
0  Cc1nc2cc(O)c(-c3ccc4nc(C5CCNCC5)ccc4n3)cc2s1 [Compound 148]  5.00 to 6.00
1  CC(C)N[C@@H]1CCN(c2ccc3nc(-c4cc5cn(C)nc5c(F)c4O)ccc3n2)C1 (single isomer, unassigned) [Compound 285]        > 7.00

Could you now consider this next compound?
input: Consider the compound shown here: Cc1nc2c(C)c(O)c(-c3ccc4nc(N5CC[C@@H](NC6CC6)C5)ccc4n3)cc2o1 [Compound 217] What is its recorded pIC50?
output: > 7.00

* * *

test system: MYB; assay: HiBiT protein abundance assay, MYB (K562 HiBiT knock-in); assay type: cell-based, human; conditions: HiBiT knock-in K562 cells, 24 hours, top dose 10 μM
parameter: IC50

input: Consider the molecule shown here: `CN[C@@H]1CCN(c2ccc3nc(-c4cc(C#N)c5nc(C)cn5c4)ncc3n2)C1` What is its recorded IC50?
output: 100 to 1000 nM

input: Consider the molecule shown here: `Cn1cc2cc(-c3ccc4nc(N5CC[C@@H](NC6(CF)CC6)C5)ccc4n3)c(O)cc2n1` What is its recorded IC50?
output: < 100 nM

input: Consider the molecule shown here: `Cn1cc2cc(-c3ccc4nc(N5CCNC6(CC6)C5)ccc4n3)c(O)cc2n1` What is its recorded IC50?
output: 1000 to 10000 nM

input: Consider the molecule shown here: `Cn1cc2cc(-c3ccc4nc(N5CC[C@H](NC6CCC6)C5)ccc4n3)c(O)cc2n1` What is its recorded IC50?
output: < 100 nM

* * *

Recorded measurements of pIC50, one per entry
system: MYB mRNA; assay: RT-qPCR splicing assay, MYB mRNA canonical (CJ) and alternative (AJ) junction; assay type: cell-based, human; details: Homo sapiens, MYB canonical junction mRNA, RT-qPCR; read-out: MYB CJ (decrease in CJ mRNA levels, IC50)
pIC50: −log10 of the molar value.

Check out these entries, answers already filled in.
In [3]: df
Out[3]:
                                   molecule     obs_value
0  CN[C@@H]1CCN(c2ccc3nc(-c4cc5cn(C)nc5c(C)c4O)ncc3c2)C1 (single isomer, unassigned)        > 7.00
1  Cc1nc2cc(-c3ccc4nc(N5CCC(NC(C)(C)C)C5)ccc4n3)c(O)cc2n1C (stereo not shown)  6.00 to 7.00
2  COCc1nc2cc(O)c(-c3ccc4nc(N5CCC(NC(C)(C)C)C5)ccc4n3)cc2o1 (stereo not shown)  6.00 to 7.00
3  Cn1cc2cc(-c3ccc4nc(N5CC[C@@H](N)C5)ccc4n3)c(O)c(F)c2n1 (single isomer, unassigned)        > 7.00
4  Cc1nc2cc(O)c(-c3ccc4nc(N5CC[C@H](NC6(CF)CC6)C5)ccc4n3)cc2o1 (single isomer, unassigned)        > 7.00
5  C[C@H]1C[C@H](c2ccc3nc(-c4cc5cn(C)nc5c(F)c4O)ccc3n2)CCN1 (single isomer, unassigned)        > 7.00
6  Cn1cc2cc(-c3nc(C#N)c4cc(N5CCNCC5)ccc4n3)c(O)c(F)c2n1        > 7.00
7  Cn1cc2cc(-c3ccc4nc(N5CCNC(C)(C)C5)ccc4n3)c(O)cc2n1  6.00 to 7.00

input: Consider the molecule shown here: Cc1c(O)c(-c2ncc3cc(N4C[C@@H](C)N[C@H](C)C4)ccc3n2)cc2cn(C)nc12 (single isomer, unassigned) What is its recorded pIC50?
output: 6.00 to 7.00

input: Consider the molecule shown here: `Cn1cc2cc(-c3ccc4nc(C5CCNCC5)ccc4n3)ccc2n1` What is its recorded pIC50?
output: 6.00 to 7.00

input: Consider the molecule shown here: Cn1cc2cc(-c3ncc4nc(N5CC[C@@H](N)C5)ccc4n3)c(O)c(F)c2n1 (single isomer, unassigned) What is its recorded pIC50?
output: > 7.00

input: Consider the molecule shown here: `Cc1nc2cc(O)c(-c3ccc4nc(N5CC[C@H](N[C@H]6C[C@H](F)C6)C5)ccc4n3)cc2o1` What is its recorded pIC50?
output: 6.00 to 7.00

input: Consider the molecule shown here: COc1c(-c2ccc3nc(N4CCC(NC(C)(C)C)C4)ccc3n2)cc2c[nH]nc2c1C (stereo not shown) What is its recorded pIC50?
output: < 5.00

* * *

tested on: HTT; assay: HiBiT protein abundance assay, HTT (K562 HiBiT knock-in); assay type: cell-based, human; conditions: HiBiT knock-in K562 cells, 24 hours, top dose 10 μM
pIC50: −log10 of the molar value.
Recorded measurements of pIC50, one per entry

Check out these entries, answers already filled in.
                                   compound  parameter     obs_value
0  Cc1c(O)c(-c2ncc3nc(N4CCNCC4)ccc3n2)cc2cn(C)nc12 [Compound 338]      pIC50  6.00 to 7.00
1  Cc1nc2c(C)c(O)c(-c3ccc4nc(N5CCC(NC(C)C)C5)ccc4n3)cc2o1 (centres unmarked) [Compound 312]      pIC50        > 7.00
2  CNC(=O)c1nc(-c2cc3cn(C)nc3c(C)c2O)nc2ccc(N3CCN[C@@H](C)C3)cc12 (single isomer, unassigned) [Compound 512]      pIC50  6.00 to 7.00
3  CNC1CCN(c2cc3c(Cl)cc(-c4cc5cn(C)nc5c(C)c4O)nc3cc2C)C1 (centres unmarked) [Compound 486]      pIC50  5.00 to 6.00
4  Cc1nc2cc(O)c(-c3ccc4nc(N5CCN[C@@H](C6CC6)C5)ccc4n3)cc2o1 [Compound 418]      pIC50  6.00 to 7.00

input: Consider the compound shown here: Cn1cc2cc(-c3ccc4nc(N5CC[C@H](N[C@H]6C[C@@H](F)C6)C5)ccc4n3)c(O)cc2n1 [Compound 299] What is its recorded pIC50?
output: > 7.00

input: Consider the compound shown here: C[C@@H]1CN(c2ccc3nc(-c4cc5cn(C)nc5c(F)c4O)nc(C4CC4)c3c2)C[C@H](C)N1 [Compound 542] What is its recorded pIC50?
output: 5.00 to 6.00

input: Consider the compound shown here: Cn1cc2cc(-c3ccc4nc(N5CC[C@]67CCN[C@H]6CC[C@H]57)ccc4n3)c(O)cc2n1 [Compound 160] What is its recorded pIC50?
output: 6.00 to 7.00

* * *

test system: MYB mRNA; assay: RT-qPCR splicing assay, MYB mRNA canonical (CJ) and alternative (AJ) junction; assay type: cell-based, human; settings: Homo sapiens, MYB canonical junction mRNA, RT-qPCR; read-out: MYB CJ (decrease in CJ mRNA levels, IC50)
Recorded measurements of IC50, one per entry

Check out these entries, answers already filled in.
>>> print(df.to_string())
                                   compound         obs_value
0  Cn1cc2cc(-c3ccc4nc(N5CC[C@@H](NC(C)(C)C)C5)ccc4n3)c(O)cc2n1 [Compound 153]          < 100 nM
1  Cn1cc2cc(-c3ccc4nc(N5CC[C@H](NC(C)(C)C)C5)ccc4n3)c(O)cc2n1 [Compound 154]    100 to 1000 nM
2  Cn1cc2cc(-c3ccc4nc(N5CC[C@H](NCC(F)(F)F)C5)ccc4n3)c(O)cc2n1 [Compound 182]  1000 to 10000 nM
3  CNC1CCN(c2ccc3nc(-c4cc(F)c5nc(C)cn5c4)ncc3n2)C1 (stereo not drawn) [Compound 393]          < 100 nM
4  CCN[C@H]1CCN(c2ccc3nc(-c4cc5cn(C)nc5cc4O)ccc3n2)C1 [Compound 179]    100 to 1000 nM
5  Cn1cc2cc(-c3ccc4nc(N5CC[C@@H](NC(C)(C)C)C5)ccc4n3)c(O)c(F)c2n1 (single isomer, unassigned) [Compound 391]          < 100 nM
6  Cc1nc2c(C)c(O)c(-c3ccc4nc(N5CC[C@@H](NC(C)(C)C)C5)ncc4n3)cc2o1 [Compound 436]          < 100 nM
7  Cc1nc2c(C)c(O)c(-c3ccc4nc(N5CC[C@H](NC(C)(C)C)C5)ccc4n3)cc2o1 [Compound 214]    100 to 1000 nM
8  Cc1nc2cc(O)c(-c3ccc4nc([C@H]5CCNC6(CC6)C5)ccc4n3)cc2o1 (single isomer, unassigned) [Compound 497]          < 100 nM
9  Cn1cc2cc(-c3cc4ccc(N5CCC(NC(C)(C)C)C5)nc4cn3)c(O)cc2n1 (stereo not drawn) [Compound 218]        > 10000 nM

input: Consider the compound shown here: Cn1cc2cc(-c3ccc4nc(N5CC[C@@H](NCC6CC6)C5)ccc4n3)c(O)cc2n1 [Compound 195] What is its recorded IC50?
output: 100 to 1000 nM

input: Consider the compound shown here: Cc1nc2cc(O)c(-c3ccc4nc(N5CCN[C@@H](C(C)C)C5)ccc4n3)cc2o1 [Compound 422] What is its recorded IC50?
output: 100 to 1000 nM
